assay: qHTS assay for small molecule activators of the p53 signaling pathway (AID 651743); conditions: HCT-116 p53RE-bla, beta-lactamase FRET ratio, 16 h; stronger effect = higher value; note: series mostly up to about 92 µM; % of control where 0% means no effect
Inconclusive results are not listed.
test_readout: activation (%)
Answer in %, number only, no unit symbol.

> print(dat)
                                   compound  test.readout  value.reported
1  CC(=O)OC(C(=O)c1ccccc1)c1ccccc1 (stereo unspecified)    activation           -2.72

Prompt line: // activation lookup, key: OC1CCCCC1
Response line: -2.93

Prompt line: Another: Nc1ccccc1O
Response line: 17.3

Prompt line: Another: c1cc2c3c(c1)ccc1cccc(c13)C2
Response line: -4.21

Prompt line: Another: NC(=O)c1ccc([N+](=O)[O-])cc1
Response line: -4.76

Prompt line: Another: C=CC1CO1 (stereo unspecified)
Response line: -3.74
